# Target Or System: Histamine H3 receptor (Homo sapiens)
# Sequence (Q9Y5N1 whole entry): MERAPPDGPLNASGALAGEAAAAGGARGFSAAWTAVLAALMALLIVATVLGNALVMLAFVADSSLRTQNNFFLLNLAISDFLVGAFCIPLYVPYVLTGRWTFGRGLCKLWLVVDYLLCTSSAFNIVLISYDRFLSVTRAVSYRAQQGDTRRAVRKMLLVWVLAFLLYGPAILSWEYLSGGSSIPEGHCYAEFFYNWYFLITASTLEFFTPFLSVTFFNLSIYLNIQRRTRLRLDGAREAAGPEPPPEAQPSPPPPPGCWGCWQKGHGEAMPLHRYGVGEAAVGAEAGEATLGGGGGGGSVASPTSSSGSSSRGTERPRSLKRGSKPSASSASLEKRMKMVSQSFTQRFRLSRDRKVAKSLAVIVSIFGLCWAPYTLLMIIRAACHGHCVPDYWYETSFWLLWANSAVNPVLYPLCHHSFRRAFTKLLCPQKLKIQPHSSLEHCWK
# Method Description: Antagonist activity at human cloned histamine H3 receptor expressed in CHO-K1 cells assessed as inhibition of R-alpha-methylhistamine-induced [35S]GTPgammaS binding
Quantity Measured: IC50 (nM)

See these solved cases before continuing.
# Molecule, IC50, nM
data = [
    ("Cc1nc2ccc(Cl)cc2c(=O)n1-c1ccc(OC2CCN(C3CCC3)CC2)cc1", 1.5),
    ("Cc1cccc2nc(C)n(-c3ccc(OC4CCN(C5CCC5)CC4)cc3)c(=O)c12", 0.27),
]

a = CCN1CCC(Oc2ccc(-n3c(C)nc4ccccc4c3=O)cc2)CC1
b = Cc1nc2ccccc2c(=O)n1-c1ccc(OC2CCN(C)CC2)cc1
# input Of the two listed items, a and b , which carries the larger IC50 figure? Mark your answer with the label of the selected entry.
# output b

I = Cc1nc2ccccc2c(=O)n1-c1ccc(OC2CCN(C3CCCC3)C2)cc1 (stereo not given)
II = CNC(=O)c1ccc(Oc2ccc3c(c2)CCN(C2CCC2)CC3)nc1
III = Cc1nc2cc(Cl)ccc2c(=O)n1-c1ccc(OC2CCN(C3CCC3)CC2)cc1
# input Ordering: ascending IC50. Please, when replying, give the labels in the order that was requested.
# output II, III, I

A = Cc1nc2cc(F)ccc2c(=O)n1-c1ccc(OC2CCN(C3CCC3)CC2)cc1
B = Cc1nc2ccccc2c(=O)n1-c1ccc(OC2CCN(C3CCC3)C2)cc1 (stereo not given)
# input Hey, between A and B which has a smaller measured IC50? Mark your answer with the label of the selected entry.
# output A
